Target: Cytochrome P450 2B6 (Homo sapiens, UniProt P20813)
Sequence (P20813 whole entry): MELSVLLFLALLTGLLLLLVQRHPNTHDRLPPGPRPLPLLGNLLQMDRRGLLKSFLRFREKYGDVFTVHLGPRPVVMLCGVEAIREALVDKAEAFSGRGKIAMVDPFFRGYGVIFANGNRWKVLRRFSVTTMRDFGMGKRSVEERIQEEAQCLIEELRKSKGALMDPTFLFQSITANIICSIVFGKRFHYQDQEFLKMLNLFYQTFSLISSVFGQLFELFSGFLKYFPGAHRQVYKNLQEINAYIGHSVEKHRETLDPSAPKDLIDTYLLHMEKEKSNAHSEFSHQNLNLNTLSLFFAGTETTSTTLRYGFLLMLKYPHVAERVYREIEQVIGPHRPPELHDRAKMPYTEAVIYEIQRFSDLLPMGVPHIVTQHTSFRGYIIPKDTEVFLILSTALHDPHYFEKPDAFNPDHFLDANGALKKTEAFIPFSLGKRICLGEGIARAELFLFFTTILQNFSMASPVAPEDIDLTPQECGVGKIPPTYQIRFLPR
Assay: Inhibition of CYP2B6 in human liver microsomes using bupropion as substrate preincubated for 5 mins followed by NADPH-generating system addition and measured after 20 mins by LC-MS/MS analysis
attributeMeasured: IC50

Noted IC50 for CCc1nc(-c2ncc(OC)cn2)n(-c2cccc(C(=O)NCCCCc3ccccc3)c2)n1 , tested on Cytochrome P450 2B6 (Homo sapiens, UniProt P20813): > 50 µM

====

Molecular target: Myoferlin (Homo sapiens)
Sequence (Q9NZM1 whole entry, the tested form may be a part): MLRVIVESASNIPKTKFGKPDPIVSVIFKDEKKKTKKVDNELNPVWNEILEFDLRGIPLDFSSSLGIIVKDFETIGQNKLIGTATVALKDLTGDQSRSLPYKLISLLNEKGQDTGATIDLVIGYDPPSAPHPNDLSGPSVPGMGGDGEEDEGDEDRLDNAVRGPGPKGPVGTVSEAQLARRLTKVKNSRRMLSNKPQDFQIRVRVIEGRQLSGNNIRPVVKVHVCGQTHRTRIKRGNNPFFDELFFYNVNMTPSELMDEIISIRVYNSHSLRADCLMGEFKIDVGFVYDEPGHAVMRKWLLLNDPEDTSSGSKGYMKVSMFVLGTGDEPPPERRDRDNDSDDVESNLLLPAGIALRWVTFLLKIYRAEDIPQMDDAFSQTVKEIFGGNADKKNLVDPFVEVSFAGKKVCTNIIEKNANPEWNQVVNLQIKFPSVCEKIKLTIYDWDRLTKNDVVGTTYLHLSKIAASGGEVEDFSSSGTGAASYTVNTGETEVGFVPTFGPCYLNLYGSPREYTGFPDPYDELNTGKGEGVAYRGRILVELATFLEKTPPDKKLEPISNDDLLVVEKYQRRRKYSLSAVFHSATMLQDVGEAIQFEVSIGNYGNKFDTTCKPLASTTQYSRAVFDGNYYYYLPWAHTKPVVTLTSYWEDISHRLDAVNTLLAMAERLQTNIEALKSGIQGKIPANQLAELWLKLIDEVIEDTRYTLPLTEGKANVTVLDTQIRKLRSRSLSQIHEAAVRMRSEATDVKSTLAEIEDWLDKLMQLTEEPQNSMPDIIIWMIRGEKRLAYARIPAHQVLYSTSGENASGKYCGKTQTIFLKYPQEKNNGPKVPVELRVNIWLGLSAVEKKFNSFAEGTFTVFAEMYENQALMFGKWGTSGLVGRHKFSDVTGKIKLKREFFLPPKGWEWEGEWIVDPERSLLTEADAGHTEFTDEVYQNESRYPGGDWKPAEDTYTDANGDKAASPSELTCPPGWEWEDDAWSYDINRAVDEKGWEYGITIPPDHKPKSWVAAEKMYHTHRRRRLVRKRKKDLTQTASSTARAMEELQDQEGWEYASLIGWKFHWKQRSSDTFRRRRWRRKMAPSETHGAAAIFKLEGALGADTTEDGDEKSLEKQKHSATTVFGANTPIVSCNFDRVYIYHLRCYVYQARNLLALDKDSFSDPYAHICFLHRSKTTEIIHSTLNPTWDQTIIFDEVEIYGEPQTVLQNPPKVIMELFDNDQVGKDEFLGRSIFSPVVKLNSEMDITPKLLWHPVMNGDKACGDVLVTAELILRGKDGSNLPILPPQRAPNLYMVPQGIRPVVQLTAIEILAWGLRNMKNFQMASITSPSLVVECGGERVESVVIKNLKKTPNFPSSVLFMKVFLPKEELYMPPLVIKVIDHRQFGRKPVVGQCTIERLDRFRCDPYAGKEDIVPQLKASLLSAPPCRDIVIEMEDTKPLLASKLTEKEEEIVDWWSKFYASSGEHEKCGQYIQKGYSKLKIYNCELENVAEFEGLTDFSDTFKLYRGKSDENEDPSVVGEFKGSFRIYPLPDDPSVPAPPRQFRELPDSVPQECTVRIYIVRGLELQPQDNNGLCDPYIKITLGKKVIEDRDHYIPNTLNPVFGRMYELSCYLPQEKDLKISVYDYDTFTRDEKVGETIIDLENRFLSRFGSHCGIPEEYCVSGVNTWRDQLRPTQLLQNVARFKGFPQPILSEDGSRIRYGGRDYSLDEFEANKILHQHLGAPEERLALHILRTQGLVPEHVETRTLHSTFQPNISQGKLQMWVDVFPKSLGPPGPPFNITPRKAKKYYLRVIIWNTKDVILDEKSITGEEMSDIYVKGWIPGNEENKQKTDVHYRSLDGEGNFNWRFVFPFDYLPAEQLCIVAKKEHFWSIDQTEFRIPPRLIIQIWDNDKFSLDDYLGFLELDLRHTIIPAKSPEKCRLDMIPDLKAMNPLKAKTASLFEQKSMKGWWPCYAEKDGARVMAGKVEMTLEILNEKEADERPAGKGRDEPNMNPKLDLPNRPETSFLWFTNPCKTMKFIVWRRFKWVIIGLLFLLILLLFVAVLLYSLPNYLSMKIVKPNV
Test: Reversible binding affinity to recombinant human GST-tagged MYOF C2 domain (3445 to 3912 residues) expressed in Escherichia coli BL21 (DE3) by surface plasmon resonance analysis
attributeMeasured: Kd (µM)
Note: unit µM is implicit; provide only the numeric part.

Note to self: Kd of CCc1nc(-c2ncc(OC)cn2)n(-c2cccc(C(=O)NCCCCc3ccccc3)c2)n1 with Myoferlin (Homo sapiens) was 0.094

====

Target: UniProtKB P08684
Sequence (P08684 whole entry): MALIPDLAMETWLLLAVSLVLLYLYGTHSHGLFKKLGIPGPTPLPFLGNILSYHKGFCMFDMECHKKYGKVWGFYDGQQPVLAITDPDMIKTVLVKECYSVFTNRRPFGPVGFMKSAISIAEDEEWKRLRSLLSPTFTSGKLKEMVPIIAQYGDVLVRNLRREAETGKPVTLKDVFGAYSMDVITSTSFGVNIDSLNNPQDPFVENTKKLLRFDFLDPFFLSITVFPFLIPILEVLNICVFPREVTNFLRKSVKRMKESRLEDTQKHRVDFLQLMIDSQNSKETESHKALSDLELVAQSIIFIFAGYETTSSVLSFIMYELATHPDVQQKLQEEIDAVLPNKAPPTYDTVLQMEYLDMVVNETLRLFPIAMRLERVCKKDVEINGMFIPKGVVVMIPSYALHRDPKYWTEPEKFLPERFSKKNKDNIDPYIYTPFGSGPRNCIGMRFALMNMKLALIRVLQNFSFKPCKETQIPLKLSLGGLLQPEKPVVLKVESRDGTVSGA
attributeMeasured: IC50

// IC50 (UniProtKB P08684) for CCc1nc(-c2ncc(OC)cn2)n(-c2cccc(C(=O)NCCCCc3ccccc3)c2)n1 = > 50 µM

====

Molecular target: UniProt P10635
Sequence (P10635 whole entry): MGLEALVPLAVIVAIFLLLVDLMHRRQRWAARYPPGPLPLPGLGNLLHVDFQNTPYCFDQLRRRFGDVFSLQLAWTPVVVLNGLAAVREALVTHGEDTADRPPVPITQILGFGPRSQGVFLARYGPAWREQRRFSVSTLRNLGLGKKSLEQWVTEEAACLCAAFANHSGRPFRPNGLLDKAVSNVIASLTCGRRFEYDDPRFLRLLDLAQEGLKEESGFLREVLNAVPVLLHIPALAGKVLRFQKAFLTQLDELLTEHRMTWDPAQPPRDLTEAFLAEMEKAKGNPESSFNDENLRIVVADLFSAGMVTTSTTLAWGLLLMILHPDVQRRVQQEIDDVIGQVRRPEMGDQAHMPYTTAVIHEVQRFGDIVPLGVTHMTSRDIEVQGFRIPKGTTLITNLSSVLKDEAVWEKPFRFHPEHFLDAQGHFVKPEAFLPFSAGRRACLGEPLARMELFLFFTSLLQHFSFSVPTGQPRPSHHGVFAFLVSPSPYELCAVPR
attributeMeasured: IC50 (µM)
Record the value in µM, omitting the unit from your answer.

IC50 value, target or system UniProt P10635, for CCc1nc(-c2ncc(OC)cn2)n(-c2cccc(C(=O)NCCCCc3ccccc3)c2)n1 : 49.6

====

Biological target: Cytochrome P450 2E1 (Homo sapiens)
Sequence (P05181 whole entry): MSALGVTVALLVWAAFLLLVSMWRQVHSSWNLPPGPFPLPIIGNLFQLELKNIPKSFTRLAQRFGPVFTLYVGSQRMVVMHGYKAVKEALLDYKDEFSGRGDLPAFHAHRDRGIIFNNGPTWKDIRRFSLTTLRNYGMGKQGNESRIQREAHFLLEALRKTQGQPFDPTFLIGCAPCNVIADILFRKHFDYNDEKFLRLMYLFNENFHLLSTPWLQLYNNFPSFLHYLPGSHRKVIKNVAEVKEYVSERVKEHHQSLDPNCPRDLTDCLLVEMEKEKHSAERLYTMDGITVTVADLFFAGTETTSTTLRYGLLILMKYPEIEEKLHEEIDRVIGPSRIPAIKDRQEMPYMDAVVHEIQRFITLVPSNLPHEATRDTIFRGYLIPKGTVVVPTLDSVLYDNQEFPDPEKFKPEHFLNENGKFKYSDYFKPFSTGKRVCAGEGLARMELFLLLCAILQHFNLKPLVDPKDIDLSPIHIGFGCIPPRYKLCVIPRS
attributeMeasured: IC50

The reported IC50 of the compound CCc1nc(-c2ncc(OC)cn2)n(-c2cccc(C(=O)NCCCCc3ccccc3)c2)n1 was > 50 µM

====

Target: Cytochrome P450 2C9 (Homo sapiens, UniProt P11712)
Sequence (P11712 whole entry): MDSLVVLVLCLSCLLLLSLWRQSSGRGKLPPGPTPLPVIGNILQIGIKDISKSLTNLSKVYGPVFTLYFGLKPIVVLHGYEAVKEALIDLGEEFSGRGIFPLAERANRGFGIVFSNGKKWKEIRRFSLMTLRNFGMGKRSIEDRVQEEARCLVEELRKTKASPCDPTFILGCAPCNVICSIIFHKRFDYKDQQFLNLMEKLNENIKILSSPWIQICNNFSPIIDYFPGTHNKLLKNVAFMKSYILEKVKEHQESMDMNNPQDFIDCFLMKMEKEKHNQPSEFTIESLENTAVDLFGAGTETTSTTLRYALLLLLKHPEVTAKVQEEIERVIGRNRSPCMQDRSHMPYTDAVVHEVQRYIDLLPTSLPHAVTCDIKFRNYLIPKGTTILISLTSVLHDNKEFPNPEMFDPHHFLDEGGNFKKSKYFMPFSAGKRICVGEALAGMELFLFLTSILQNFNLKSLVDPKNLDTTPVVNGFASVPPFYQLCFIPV
attributeMeasured: IC50
Number first, unit second.

# value of IC50, Cytochrome P450 2C9 (Homo sapiens, UniProt P11712), item CCc1nc(-c2ncc(OC)cn2)n(-c2cccc(C(=O)NCCCCc3ccccc3)c2)n1 = 20.5 µM

Data credit: ChEMBL document CHEMBL4304741
